# efficacy annotations
- Test system: Rhipicephalus sanguineus
- assay-remarks: Rhipicephalus sanguineus in vitro contact test with adult brown dog ticks
- Assay type: in vivo
- run-conditions: application rate 1 μg/cm^2 (100 g/ha); after 48 h; ticks dead or moribund
measured-quantity: efficacy (%)

| compound | measure-unit | readout-number |
| --- | --- | --- |
| Cc1cc(C(=O)Nc2cc(-c3cnn(-c4c(C(F)(F)F)c(C(F)(F)C(F)(F)F)nn4C)c3)ccc2F)cc(Cl)n1 [Example 1-043] | % | 80 |
| COc1cc(C(=O)Nc2cc(-c3cnn(-c4c(C(F)(F)F)c(C(F)(F)C(F)(F)F)nn4C)c3)cnc2Cl)ccc1F [Example 2-007] | % | 80 |
| Cn1nc(C(F)(F)C(F)(F)F)c(C(F)(F)F)c1-n1cc(-c2cnc(F)c(NC(=O)c3ccncc3)c2)cn1 [Example 2-005] | % | 80 |
| Cn1nc(C(F)(F)C(F)(F)F)c(C(F)(F)F)c1-n1cc(-c2ccc(F)c(NC(=O)C(F)(F)C(F)F)c2)cn1 [Example 1-033] | % | 100 |

###

Measured efficacy (kill in %) of individual entries
- System: Ctenocephalides felis
- assay-remarks: Ctenocephalides felis oral test
- Format: in vivo
- run-conditions: application rate 100 ppm in citrated cattle blood; after 2 days

| given-smiles | efficacy (kill in %) |
| --- | --- |
| Cc1ncc(-c2cnn(-c3c(C(F)(F)F)c(C(F)(F)C(F)(F)F)nn3C)c2)cc1NC(=O)c1ccncc1 | 100% |
| Cn1nc(C(F)(F)C(F)(F)F)c(C(F)(F)F)c1-n1cc(-c2cccc(NC(=O)c3ccnc(Cl)c3)c2)cn1 | 100% |
| CCC(=O)Nc1cc(-c2cnn(-c3c(C(F)(F)F)c(C(F)(F)C(F)(F)F)nn3C)c2)ccc1F | 100% |
| Cn1nc(C(F)(F)C(F)(F)F)c(C(F)(F)F)c1-n1cc(-c2cccc(NC(=O)C3(Cl)CC3)c2)cn1 | 100% |

###

Documented efficacy (kill in %) across a set of molecules
- System: Ctenocephalides felis
- assay-remarks: Ctenocephalides felis oral test
- Assay type: in vivo
- run-conditions: application rate 100 ppm in citrated cattle blood; after 2 days

| given-smiles | efficacy (kill in %) |
| --- | --- |
| Cc1ncc(-c2cnn(-c3c(C(F)(F)F)c(C(F)(F)C(F)(F)F)nn3C)c2)cc1NC(=O)c1ccc(F)cc1 | 100 |
| Cn1nc(C(F)(F)C(F)(F)F)c(C(F)(F)F)c1-n1cc(-c2ccc(F)c(NC(=O)c3ccc(C#N)cc3)c2)cn1 | 100 |
| Cc1cc(C(F)F)n2nc(C(=O)Nc3cc(-c4cnn(-c5c(C(F)(F)F)c(C(F)(F)C(F)(F)F)nn5C)c4)ccc3F)nc2n1 | 100 |

###

- Tested on: Ctenocephalides felis
- assay-remarks: Ctenocephalides felis oral test
- Format: in vivo
- run-conditions: application rate 100 ppm in citrated cattle blood; after 2 days

| compound | efficacy (kill in %) |
| --- | --- |
| CC(Oc1ccccc1)C(=O)Nc1cc(-c2cnn(-c3c(C(F)(F)F)c(C(F)(F)C(F)(F)F)nn3C)c2)ccc1F (racemic) | 90% |
| Cn1nc(C(F)(F)C(F)(F)F)c(C(F)(F)F)c1-n1cc(-c2ccc(F)c(NC(=O)c3ccnc(F)c3)c2)cn1 | 100% |
| Cn1nc(C(F)(F)C(F)(F)F)c(C(F)(F)F)c1-n1cc(-c2cccc(NC(=O)c3ccncc3F)c2)cn1 | 100% |
| Cn1nc(C(F)(F)C(F)(F)F)c(C(F)(F)F)c1-n1cc(-c2cccc(NC(=O)c3ccccc3F)c2)cn1 | 100% |
| Cc1cc(C(=O)Nc2cc(-c3cnn(-c4c(C(F)(F)F)c(C(F)(F)C(F)(F)F)nn4C)c3)ccc2F)ccn1 | 100% |
| Cn1nc(C(F)(F)C(F)(F)F)c(C(F)(F)F)c1-n1cc(-c2ccc(F)c(NC(=O)c3ccc(F)nc3)c2)cn1 | 100% |
